- testSystem: T1, recombinant human GREM1 (hGREM1-His; C-terminal 10His tagged, R&D, #5190-GR) (human, UniProt O60565 25-184)
- T1 construct: range 25-184; also called recombinant human GREM1 with a C-terminal decahistidine tag
- T1 sequence: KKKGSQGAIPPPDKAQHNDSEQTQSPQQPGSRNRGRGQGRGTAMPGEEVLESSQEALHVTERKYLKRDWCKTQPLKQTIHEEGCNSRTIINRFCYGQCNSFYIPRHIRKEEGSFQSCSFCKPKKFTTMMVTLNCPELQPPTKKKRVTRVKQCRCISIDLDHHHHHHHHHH
- assaySummary: BLI Octet, mAb captured, 100 nM GREM1 without vs with 5 uM heparin;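 note: octet Red96 biolayer interferometry at 25 °C, antibodies captured on anti-human IgG Fc biosensors, association of GREM1 measured with versus without heparin in HEPES-buffered saline, pH 7.4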
experimentalReadout: Reduction in Signal from Heparin at 30 sec (nm)

INSERT INTO results (binder, measured) VALUES
  ('H4H6233P (antibody, human IgG4, V domains shown, H4H prefix = human IgG4 Fc) VH: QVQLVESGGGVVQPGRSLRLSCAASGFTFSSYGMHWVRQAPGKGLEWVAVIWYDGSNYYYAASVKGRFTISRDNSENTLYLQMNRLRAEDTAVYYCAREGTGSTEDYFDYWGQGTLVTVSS VL: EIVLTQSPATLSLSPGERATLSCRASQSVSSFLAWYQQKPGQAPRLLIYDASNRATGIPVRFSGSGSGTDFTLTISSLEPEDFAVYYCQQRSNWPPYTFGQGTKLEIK', 0.11),
  ('H4H6251P (antibody, human IgG4, V domains shown, H4H prefix = human IgG4 Fc) VH: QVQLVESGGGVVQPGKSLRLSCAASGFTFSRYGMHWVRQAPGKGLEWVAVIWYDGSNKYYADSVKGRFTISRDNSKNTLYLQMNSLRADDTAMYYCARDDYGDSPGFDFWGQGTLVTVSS VL: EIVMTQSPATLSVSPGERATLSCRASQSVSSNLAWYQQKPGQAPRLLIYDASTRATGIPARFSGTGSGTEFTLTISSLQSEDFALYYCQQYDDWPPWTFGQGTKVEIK', 0.24),
  ('H4H6240P (antibody, human IgG4, V domains shown, H4H prefix = human IgG4 Fc) VH: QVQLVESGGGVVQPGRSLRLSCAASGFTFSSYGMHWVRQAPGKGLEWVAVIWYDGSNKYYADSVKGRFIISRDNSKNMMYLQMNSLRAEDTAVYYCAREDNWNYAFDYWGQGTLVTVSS VL: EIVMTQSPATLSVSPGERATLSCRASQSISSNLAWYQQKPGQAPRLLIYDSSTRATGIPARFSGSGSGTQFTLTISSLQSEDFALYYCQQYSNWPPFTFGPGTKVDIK', 0.18);

Value source: patent US20200157194A1
